Task for the reader: assign each of the following binders its reported pKd.
- assayed target: T1, Source 2 VEGF-D, purified recombinant human VEGF-D monomer (R&D Systems, Catalog Number 622-VD/CF) (human, UniProt O43915 93-201)
- T1 construct: Bought protein; Whole entry named; also called Source 2 VEGF-D Monomer
- T1 sequence: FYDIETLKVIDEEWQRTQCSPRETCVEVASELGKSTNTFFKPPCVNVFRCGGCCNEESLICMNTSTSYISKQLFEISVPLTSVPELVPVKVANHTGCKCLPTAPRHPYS
- protocol summary: SPR, IgG captured by anti-human IgG (Fc), Source 2 VEGF-D monomer as analyte
Field pKd (float): negative decimal logarithm of the concentration in molar.

May I ask what pKd has been recorded for humanized IgG antibody derived from clone F61 (antibody, V domains shown, IgG) VH: QVQLVQSGAEVKQPGASVKVSCKASGYTFTGYNMYWVRQAPGQGLEWMGYIDPYNGDTTYNQKFKGRVTMTTDTSTSTAYMKLRSLRSDDTAVYYCARTSYYGGMDYWGRGTLVTVAS VL: DIVMTQTPLSSPVTLGQPASISCRSSQSLVHSNGNTYLHWLQQRPGQPPRLLIYKVSNRFSGVPDRFSGSGAGTDFTLKISRVEAEDVGVYYCSQSTHVPRTFGQGTKLEIKR ?
8.30

Please look up its pKd: Ig-1A, humanized IgG reformatted from scFv 1A (antibody, V domains shown, IgG made in mammalian cells; also called humanized Ig-1A) VH: QVQLVQSGAEVKQPGASVKVSCKASGYTFTGYNMYWVRQAPGQGLEWMGYIDPYNGDTTYNQKFKGRVTMTTDTSTSTAYMELRSLRSDDTAVYYCARTSYYGGMDYWGRGTLVTVAS VL: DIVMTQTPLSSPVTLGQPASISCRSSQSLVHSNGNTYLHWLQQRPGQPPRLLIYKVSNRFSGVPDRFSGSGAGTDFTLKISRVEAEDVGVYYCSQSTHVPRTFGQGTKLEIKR
8.04

What value of measured pKd is listed for humanized IgG antibody derived from clone A63 (antibody, V domains shown, IgG) VH: QVQLVQSGAKVKQPGASVKASCKASGYTFTGYNMYWVRQAPGQGLEWMGYIDPYNGDTTYNQKFKGRVTMTTDTSTSTAYMELRSLRSDDTAVYYCARTSYYGGMDYWGRGTLVTVAS VL: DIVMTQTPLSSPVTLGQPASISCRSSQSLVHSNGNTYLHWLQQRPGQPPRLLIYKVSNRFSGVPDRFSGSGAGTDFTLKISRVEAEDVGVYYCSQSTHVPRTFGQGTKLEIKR ?
8.15

# lookup: pKd of humanized IgG antibody derived from clone AW61 (antibody, V domains shown, IgG) VH: QVQLVQSGAEVKQPGASVKVSCKASGYTFTGYNMYWVRQAPGQGLEWMGYIDPYNGDTTYNQKFKGRATMTTDTSTSTAYMKLRSLRSDDTAVYYCARTSYYGGMDYWGRGTLVTVAS VL: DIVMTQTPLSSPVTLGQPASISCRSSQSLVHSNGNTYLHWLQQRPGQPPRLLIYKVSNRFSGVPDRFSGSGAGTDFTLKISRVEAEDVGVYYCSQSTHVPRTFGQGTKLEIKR
8.39

Tell me the measured pKd of humanized IgG antibody derived from clone DI26 (antibody, V domains shown, IgG) VH: QVQLVQSGAKVKQPGASVKASCKASGYTFTGYNMYWVRQAPGQGLEWMGYIDPYSGDTTYNQKFKGRVTMTTDTSTSTAYMELRSLRSDDTAVYYCARTSYYGGMDYWGRGTLVTVAS VL: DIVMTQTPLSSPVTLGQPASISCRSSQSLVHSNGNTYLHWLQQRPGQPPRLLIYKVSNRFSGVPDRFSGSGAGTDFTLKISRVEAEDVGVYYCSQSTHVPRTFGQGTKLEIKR , please.
8.39
